Where these numbers come from: ChEMBL document CHEMBL1129427

- TARGET_SYSTEM: Glutamate receptor ionotropic, AMPA (Rattus norvegicus, UniProt P19490+P19491+P19492+P19493)
# pKi per entry
Value format note: pKi is -log10 of concentration (mol/L); just state the number.

Recorded results for 10 molecules are shown here.
1) O=c1[nH]c2cc([N+](=O)[O-])c(-n3ccnc3)cc2n(C2CCCCC2)c1=O = 6.96
2) CCn1c(=O)c(=O)[nH]c2cc([N+](=O)[O-])c(-n3ccnc3)cc21 = 6.72
3) COn1c(=O)c(=O)[nH]c2cc([N+](=O)[O-])c(-n3ccnc3)cc21 = 6.42
4) Cc1cn(-c2cc3c(cc2[N+](=O)[O-])[nH]c(=O)c(=O)n3O)cn1 = 7.30
5) Cn1c(=O)c(=O)[nH]c2cc([N+](=O)[O-])c(-n3ccnc3)cc21 = 6.48
6) O=c1[nH]c2cc([N+](=O)[O-])c(-n3ccnc3)cc2n(O)c1=O = 7.68
7) CN(C)CCn1c(=O)c(=O)[nH]c2cc([N+](=O)[O-])c(-n3ccnc3)cc21 = 6.08
8) O=c1[nH]c2cc(-n3ccnc3)c([N+](=O)[O-])cc2n(O)c1=O = 6.36
9) CCCn1c(=O)c(=O)[nH]c2cc(-n3ccnc3)c([N+](=O)[O-])cc21 = 5.35
10) CCOn1c(=O)c(=O)[nH]c2cc([N+](=O)[O-])c(-n3ccnc3)cc21 = 6.52

# query: pKi of entry "CCCCCCCCCCn1c(=O)c(=O)[nH]c2cc([N+](=O)[O-])c(-n3ccnc3)cc21"
5.05

What about this molecule? "CC(C)CCn1c(=O)c(=O)[nH]c2cc([N+](=O)[O-])c(-n3ccnc3)cc21"
6.64

What about this molecule? O=c1[nH]c2cc([N+](=O)[O-])c(-n3ccnc3)cc2n(C2CCNC2)c1=O (stereo not drawn)
6.26

What about this molecule? "CCCn1c(=O)c(=O)[nH]c2cc([N+](=O)[O-])c(-n3ccnc3)cc21"
6.85

What about this molecule? "O=c1[nH]c2cc([N+](=O)[O-])c(-n3cncn3)cc2n(O)c1=O"
6.74
